Tested on: UACC-62 melanoma
measurement.protocol: NCI tumour cell line growth inhibition, 48 h
assay.readout: TGI

{"columns": ["compound", "val"],
 "data": [
  ["COc1ccccc1NC(=O)C1=C(C)NC(C)=C(C(=O)Nc2ccccc2OC)C1c1cccc2c1OCO2", "> 100 µM"],
  ["COc1ccc(-c2ccccc2)cc1-c1c(Nc2cc(Cl)cc(Cl)c2O)c(=O)c1=O", "> 50 µM"],
  ["CN1CCC(n2[nH]c(-c3ccccc3)c(Cc3ccccc3)c2=O)CC1", "> 100 µM"],
  ["COc1cc(C(SCc2ccccc2)SCc2ccccc2)ccc1O", "> 10 µM"],
  ["COc1ccc2c(c1)-c1nn(CCN(C)C)c3ccc(C(=O)NCCCN(C)CCCNC(=O)c4ccc5c6c(nn5CCN(C)C)-c5cc(OC)ccc5Nc46)c(c13)N2", "0.23 µM"],
  ["COC(=O)CCN(CCC(=O)OC)C1CC1", "> 100 µM"],
  ["COc1ccc(C(O)/C(=C/n2ccnc2)c2ccccc2)cc1OC (stereo unspecified)", "> 100 µM"],
  ["Cc1ccc(C[P+](c2ccccc2)(c2ccccc2)c2ccccc2)cc1", "14.1 µM"],
  ["CC(C)(NC1=NCCO1)c1ccccc1", "> 100 µM"],
  ["COC(=O)[C@]12CC=C3O[C@@H]4OC5(CCCCC5)O[C@@H]4[C@H]3C1C(=O)C=CC2=O (stereo partly specified)", "30.2 µM"],
  ["CN1C(=O)C(c2c[nH]c3ccccc23)=C(c2c(-c3c[nH]c4ccccc34)[nH]c3ccccc23)C1=O", "5.54 µM"],
  ["Cc1ccc2nc(Cl)c(/C=N/N3C(=O)/C(=C/c4ccc(N(C)C)cc4)N=C3c3ccccc3)cc2c1", "> 100 µM"],
  ["CC(=O)OC12CC(C)C3(O)C4C=C(C)C(=O)[C@@]4(O)CC(CO)=C[C@H]3C1C2(C)C (stereo partly specified)", "> 1000 µM"],
  ["CC(C)C1=CC23CCC4C(C)(C(=O)O)CCCC4(C)C2CC1C(C(=O)O)C3C(=O)O (stereo unspecified)", "> 100 µM"],
  ["Nc1nc(SCCC/C=C/I)nc2c1ncn2C1OC(CO)C(O)C1O (stereo unspecified)", "> 202 µM"],
  ["COc1ccc(C2=CN3CCC[C@H]3C=C2c2cc(O)c(OC)c(OC)c2)cc1OC", "0.0336 µM"],
  ["CCCCCCN1CCN(Cc2ccc(N(CC)CC)cc2)C(=O)C1=O", "> 100 µM"],
  ["COc1ccc(C(=O)CC(c2ccc(OC)c(OC)c2)c2c(O)c3ccccc3oc2=O)cc1OC (stereo unspecified)", "> 100 µM"],
  ["Cc1cc2c(cc1Br)C1(C)CCC(C)C1(C)O2 (stereo unspecified)", "> 100 µM"],
  ["CC(C)C(C/C=C1\\CC(CO)(COC(=O)CC(C(C)C)C(C)C)OC1=O)C(C)C (stereo unspecified)", "29 µM"],
  ["CCOC(=O)/C(=C\\c1ccc(F)cc1)C(C)=O", "38.1 µM"]
]}
